target: Monoglyceride lipase (Homo sapiens, UniProt Q99685)
Sequence (Q99685 whole entry): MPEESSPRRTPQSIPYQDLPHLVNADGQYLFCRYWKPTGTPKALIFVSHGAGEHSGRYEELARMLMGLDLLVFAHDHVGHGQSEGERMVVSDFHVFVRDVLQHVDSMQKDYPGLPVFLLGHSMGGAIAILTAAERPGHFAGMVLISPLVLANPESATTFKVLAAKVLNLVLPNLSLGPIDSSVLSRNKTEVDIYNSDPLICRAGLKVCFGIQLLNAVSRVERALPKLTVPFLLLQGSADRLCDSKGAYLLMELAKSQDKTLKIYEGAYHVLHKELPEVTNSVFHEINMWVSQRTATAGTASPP
test.description: Inhibition of human recombinant MAGL using 4-nitrophenylacetate as substrate after 30 mins
Reported IC50 by item:
Kindly provide the numeric value in µM only, without the unit symbol.

The examples below pair each entry with its known result.
chem.smiles	IC50, µM
CCOC(=O)c1cc(-c2cccc(OC(=O)NC3CCCCC3)c2)n(-c2ccc(Cl)cc2)n1	83
CCOC(=O)c1cc(-c2cccc(OC(=O)NC3CCCCC3)c2)n(-c2ccc(C)cc2)n1	34
COC(=O)c1cc(-c2cccc(OC(=O)NC3CCCCC3)c2)n(-c2ccccc2)n1	49
CCOC(=O)c1cc(-c2cccc(OC(=O)NC3CCCCC3)c2)n(-c2ccccc2)n1	21

Attention now turns to another entry.
input: Output measured IC50 for this item: CCCOC(=O)c1cc(-c2cccc(OC(=O)NC3CCCCC3)c2)n(-c2ccccc2)n1
output: 38
